# TARGET_OR_SYSTEM: PI3Kα (p110α/p85α) (Homo sapiens, UniProt P42336)
# Construct: GST (N); made in house; host or cells: Baculovirus-infected Sf9 cells
# Sequence (P42336 whole entry): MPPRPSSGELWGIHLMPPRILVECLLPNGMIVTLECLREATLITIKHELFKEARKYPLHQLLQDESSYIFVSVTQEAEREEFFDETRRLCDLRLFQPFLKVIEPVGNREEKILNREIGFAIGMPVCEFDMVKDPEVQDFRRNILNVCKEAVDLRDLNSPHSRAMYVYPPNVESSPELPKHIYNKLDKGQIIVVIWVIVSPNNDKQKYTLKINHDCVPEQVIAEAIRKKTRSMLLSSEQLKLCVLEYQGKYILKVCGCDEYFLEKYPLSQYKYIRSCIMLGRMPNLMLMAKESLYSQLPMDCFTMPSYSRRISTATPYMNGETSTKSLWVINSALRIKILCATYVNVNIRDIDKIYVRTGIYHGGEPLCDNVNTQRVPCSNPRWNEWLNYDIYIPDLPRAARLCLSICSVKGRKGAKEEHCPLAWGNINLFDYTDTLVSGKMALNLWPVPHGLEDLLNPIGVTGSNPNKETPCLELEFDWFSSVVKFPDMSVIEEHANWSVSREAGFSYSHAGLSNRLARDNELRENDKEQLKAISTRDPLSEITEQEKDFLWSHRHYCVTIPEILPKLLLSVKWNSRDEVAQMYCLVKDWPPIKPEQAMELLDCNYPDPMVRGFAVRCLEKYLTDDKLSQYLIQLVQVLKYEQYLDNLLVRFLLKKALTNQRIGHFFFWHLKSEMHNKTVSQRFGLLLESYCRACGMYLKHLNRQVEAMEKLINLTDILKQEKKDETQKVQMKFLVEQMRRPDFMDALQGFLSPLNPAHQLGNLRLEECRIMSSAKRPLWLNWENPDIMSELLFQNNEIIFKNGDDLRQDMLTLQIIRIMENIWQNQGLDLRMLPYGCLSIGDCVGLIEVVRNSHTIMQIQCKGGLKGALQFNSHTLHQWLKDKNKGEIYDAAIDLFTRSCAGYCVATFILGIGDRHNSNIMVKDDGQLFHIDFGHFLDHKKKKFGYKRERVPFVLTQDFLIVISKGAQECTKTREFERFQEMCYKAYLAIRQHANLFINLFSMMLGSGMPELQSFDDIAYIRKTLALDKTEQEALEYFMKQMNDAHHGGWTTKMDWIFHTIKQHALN
# Sequence (P27986 whole entry partner): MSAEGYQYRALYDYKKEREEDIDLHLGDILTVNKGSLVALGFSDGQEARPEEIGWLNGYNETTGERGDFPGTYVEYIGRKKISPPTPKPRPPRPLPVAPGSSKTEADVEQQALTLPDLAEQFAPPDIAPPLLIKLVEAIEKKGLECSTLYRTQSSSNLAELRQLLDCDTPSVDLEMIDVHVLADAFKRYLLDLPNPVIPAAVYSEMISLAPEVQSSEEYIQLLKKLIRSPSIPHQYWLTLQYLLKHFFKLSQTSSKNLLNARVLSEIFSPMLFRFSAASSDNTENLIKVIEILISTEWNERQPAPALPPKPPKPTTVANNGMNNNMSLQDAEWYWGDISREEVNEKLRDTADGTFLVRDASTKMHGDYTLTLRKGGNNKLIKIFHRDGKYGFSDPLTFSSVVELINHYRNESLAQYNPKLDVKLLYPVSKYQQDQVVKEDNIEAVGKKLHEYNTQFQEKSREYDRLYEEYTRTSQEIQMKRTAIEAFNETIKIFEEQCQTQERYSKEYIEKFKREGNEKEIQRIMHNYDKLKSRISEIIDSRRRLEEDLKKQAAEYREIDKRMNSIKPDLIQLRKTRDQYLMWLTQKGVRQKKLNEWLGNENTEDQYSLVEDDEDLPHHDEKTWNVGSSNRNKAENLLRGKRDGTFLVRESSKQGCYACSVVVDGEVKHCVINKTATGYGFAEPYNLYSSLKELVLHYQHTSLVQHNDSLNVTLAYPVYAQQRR
# EXPERIMENT_NOTES: PI3Kα ADP-Glo assay
# Assay type: biochemical
# ASSAY_CONTEXT: 20 μM PIP2, 10 μM ATP, 30 minutes
pIC50: −log10 of the molar value.
PROPERTY_NAME: pIC50

Example entries begin here.
| COMPOUND | pIC50 |
| --- | --- |
| CN(Cc1cc2nc(-c3ccc(OCCN)nc3)nc(N3CCOCC3)c2s1)c1ncc(C(=O)NO)cn1 [Compound 259] | < 5.00 |
| Nc1ccc(-c2nc(N3CCOCC3)c3sc(CN(CCO)c4ncc(C(=O)NO)cn4)cc3n2)cc1 [Compound 274] | > 7.00 |
| CN(Cc1cc2nc(-c3cn[nH]c3)nc(N3CCOCC3)c2s1)c1ncc(C(=O)NO)cn1 [Compound 196] | 6.00 to 7.00 |
| CC(=O)c1cccc(-c2nc(N3CCOCC3)c3sc(CN(C)c4ncc(C(=O)NO)cn4)cc3n2)c1 [Compound 300] | 6.00 to 7.00 |
| O=C(CCCCCNc1cc2nc(-c3cccc4[nH]ncc34)nc(N3CCOCC3)c2s1)NO [Compound 19] | 6.00 to 7.00 |
| CN(Cc1cc2nc(-c3cccc4[nH]ncc34)nc(N3CCNCC3)c2s1)c1ncc(C(=O)NO)cn1 [Compound 60] | < 5.00 |
| C[C@H](O)c1cccc(-c2nc(N3CCOCC3)c3sc(CN(C)c4ncc(C(=O)NO)cn4)cc3n2)c1 [Compound 296] | 6.00 to 7.00 |
| C/C(=N/O)c1ccc(F)c(-c2nc(N3CCOCC3)c3sc(CN(C)c4ncc(C(=O)NO)cn4)cc3n2)c1 [Compound 298] | 6.00 to 7.00 |
| CN(Cc1cc2nc(-c3ccc(S(C)(=O)=O)cc3)nc(N3CCOCC3)c2s1)c1ncc(C(=O)NO)cn1 [Compound 149] | < 5.00 |
| Cc1ncc(-c2nc(N3CCOCC3)c3sc(CN(CCO)c4ncc(C(=O)NO)cn4)cc3n2)s1 [Compound 312] | 6.00 to 7.00 |

Next compound, pIC50 to be filled in.
Request: Determine from records and report pIC50 for Nc1ccc(-c2nc(N3CCOCC3)c3sc(C(=O)NCC4CCN(c5ncc(C(=O)NO)cn5)CC4)cc3n2)cc1 [Compound 307]
Result: 6.00 to 7.00

====

# TARGET_OR_SYSTEM: PI3Kα (p110α/p85α) (Homo sapiens, UniProt P42336)
# Construct: GST (N)
# EXPERIMENT_NOTES: PI3Kα ADP-Glo assay
# ASSAY_CONTEXT: 20 μM PIP2, 10 μM ATP, 30 minutes
pIC50: −log10 of the molar value.
Entries annotated with measured pIC50

Example entries begin here.
| COMPOUND | PROPERTY_NAME | ASSAY_VALUE |
| --- | --- | --- |
| CN(Cc1cc2nc(-c3ccc(OCc4ccccc4)nc3)nc(N3CCOCC3)c2s1)c1ncc(C(=O)NO)cn1 | pIC50 | < 5.00 |
| CN(Cc1cc2nc(-c3cccc4[nH]ncc34)nc(N3CCOCC3)c2s1)c1ncc(/C=C/C(=O)NO)cn1 | pIC50 | > 7.00 |

Request: Lab note: PI3Kα (p110α/p85α) (Homo sapiens, UniProt P42336) assay, enter pIC50 for CN(Cc1cc2nc(-c3ccc(N)c(C#N)c3)nc(N3CCOCC3)c2s1)c1ncc(C(=O)NO)cn1 here
Result: 6.00 to 7.00

Request: Lab note: PI3Kα (p110α/p85α) (Homo sapiens, UniProt P42336) assay, enter pIC50 for CN(Cc1cc2nc(-c3cccc4[nH]c(=O)[nH]c34)nc(N3CCOCC3)c2s1)c1ncc(C(=O)NO)cn1 [Compound 314] here
Result: 6.00 to 7.00

Request: Lab note: PI3Kα (p110α/p85α) (Homo sapiens, UniProt P42336) assay, enter pIC50 for CN(Cc1cc2nc(-c3cc(O)ccc3F)nc(N3CCOCC3)c2s1)c1ncc(C(=O)NO)cn1 here
Result: > 7.00

Request: Lab note: PI3Kα (p110α/p85α) (Homo sapiens, UniProt P42336) assay, enter pIC50 for COc1ncc(-c2nc(N3CCOCC3)c3sc(C(C)N(C)c4ncc(C(=O)NO)cn4)cc3n2)cn1 (stereo not shown) here
Result: > 7.00

Request: Lab note: PI3Kα (p110α/p85α) (Homo sapiens, UniProt P42336) assay, enter pIC50 for O=C(CCCCCCNCc1cc2nc(-c3cccc4[nH]ncc34)nc(N3CCOCC3)c2s1)NO here
Result: > 7.00

====

Entries annotated with measured melting point

Example entries begin here.
| MOLECULAR_STRING | PROPERTY_NAME | ASSAY_VALUE |
| --- | --- | --- |
| O=C(CCCCCNCc1cc2nc(-c3cccc4[nH]ncc34)nc(N3CCOCC3)c2s1)NO | melting point | 128 to 130 °C |
| COc1ncc(-c2nc(N3CCOCC3)c3sc(C(C)(C)Nc4ncc(C(=O)NO)cn4)cc3n2)cn1 | melting point | 202 to 207 °C |
| CN(Cc1cc2nc(-c3ccc(N4CCCC4)cc3)nc(N3CCOCC3)c2s1)c1ncc(C(=O)NO)cn1 | melting point | 187 to 192 °C |
| CN(Cc1cc2nc(-c3ccc(N)cc3F)nc(N3CCOCC3)c2s1)c1ncc(C(=O)NO)cn1 | melting point | 195 to 197 °C |
| CN(Cc1cc2nc(-c3ccc4[nH]c(=O)[nH]c4c3)nc(N3CCOCC3)c2s1)c1ncc(C(=O)NO)cn1 | melting point | 272 to 275 °C |

Request: Determine from records and report melting point for CS(=O)(=O)N1CCN(Cc2cc3nc(-c4cccc5[nH]ncc45)nc(N4CCN(CCCCCCC(=O)NO)CC4)c3s2)CC1
Result: 131 to 134 °C

Request: Determine from records and report melting point for CN(C)CCOc1ccc(-c2nc(N3CCOCC3)c3sc(CN(C)c4ncc(C(=O)NO)cn4)cc3n2)cn1
Result: 140 to 143 °C

Request: Determine from records and report melting point for O=C(NO)c1cnc(N2CCC(CNCc3cc4nc(-c5cccc6[nH]ncc56)nc(N5CCOCC5)c4s3)CC2)nc1
Result: 170 to 172 °C

Request: Determine from records and report melting point for CN(Cc1cc2nc(-c3cnc(CN)nc3)nc(N3CCOCC3)c2s1)c1ncc(C(=O)NO)cn1
Result: > 300 °C

Request: Determine from records and report melting point for O=C(NO)c1cnc(NCc2cc3nc(-c4cccc5[nH]ncc45)nc(N4CCOCC4)c3s2)nc1
Result: 234 to 237 °C

Request: Determine from records and report melting point for CN(Cc1cc2nc(-c3cncnc3)nc(N3CCOCC3)c2s1)c1ncc(C(=O)NO)cn1
Result: 159 to 160 °C

Request: Determine from records and report melting point for CNc1ccc(-c2nc(N3CCOCC3)c3sc(C(=O)NCC4CCN(c5ncc(C(=O)NO)cn5)CC4)cc3n2)cn1
Result: 215 to 218 °C

Request: Determine from records and report melting point for CN(Cc1cc2nc(-c3cccc(O)c3)nc(N3CCOCC3)c2s1)c1ncc(C(=O)NO)cn1
Result: 175 to 181 °C

Request: Determine from records and report melting point for Nc1ncc(-c2nc(N3CCOCC3)c3sc(NS(=O)(=O)c4cccc(/C=C/C(=O)NO)c4)cc3n2)cn1
Result: > 300 °C

Request: Determine from records and report melting point for Nc1ncc(-c2nc(N3CCOCC3)c3sc(NS(=O)(=O)c4ccc(/C=C/C(=O)NO)cc4)cc3n2)cn1
Result: > 300 °C

====

Entries annotated with measured pIC50
# Test system: CaPan1
# EXPERIMENT_NOTES: Cell proliferation assay (CellTiter-Glo)
# Type: cell-based
# ASSAY_CONTEXT: Homo sapiens, CAPAN-1; Pancreas; 72 hours, 0.5% fetal bovine serum; read-out: antiproliferative activity IC50, CaPan1
pIC50: −log10 of the molar value.

Example entries begin here.
| COMPOUND | TARGET_OR_SYSTEM | pIC50 |
| --- | --- | --- |
| Cn1c(=O)n(-c2ccc(C(C)(C)C#N)cc2)c2c3cc(-c4cnc5ccccc5c4)ccc3ncc21 [BEZ-235, reference compound] | CaPan1 | 6.00 to 7.00 |
| CN(Cc1cc2nc(-c3ccc(N)cc3)nc(N3CCOCC3)c2s1)c1ncc(C(=O)NO)cn1 | CaPan1 | 6.00 to 7.00 |
| CN(Cc1cc2nc(-c3cccc(CO)c3)nc(N3CCOCC3)c2s1)c1ncc(C(=O)NO)cn1 | CaPan1 | 7.00 to 8.00 |
| CS(=O)(=O)N1CCN(Cc2cc3nc(-c4cccc5[nH]ncc45)nc(N4CCOCC4)c3s2)CC1 [GDC-0941, reference compound] | CaPan1 | 5.00 to 6.00 |

Next compound, pIC50 to be filled in.
Request: Determine from records and report pIC50 for CN(Cc1cc2nc(-c3cccc4[nH]ncc34)nc(N3CCOCC3)c2s1)c1ncc(C(=O)NO)cn1
Result: 7.00 to 8.00
